Target: Histamine H1 receptor (Homo sapiens, UniProt P35367)
Sequence (P35367 whole entry): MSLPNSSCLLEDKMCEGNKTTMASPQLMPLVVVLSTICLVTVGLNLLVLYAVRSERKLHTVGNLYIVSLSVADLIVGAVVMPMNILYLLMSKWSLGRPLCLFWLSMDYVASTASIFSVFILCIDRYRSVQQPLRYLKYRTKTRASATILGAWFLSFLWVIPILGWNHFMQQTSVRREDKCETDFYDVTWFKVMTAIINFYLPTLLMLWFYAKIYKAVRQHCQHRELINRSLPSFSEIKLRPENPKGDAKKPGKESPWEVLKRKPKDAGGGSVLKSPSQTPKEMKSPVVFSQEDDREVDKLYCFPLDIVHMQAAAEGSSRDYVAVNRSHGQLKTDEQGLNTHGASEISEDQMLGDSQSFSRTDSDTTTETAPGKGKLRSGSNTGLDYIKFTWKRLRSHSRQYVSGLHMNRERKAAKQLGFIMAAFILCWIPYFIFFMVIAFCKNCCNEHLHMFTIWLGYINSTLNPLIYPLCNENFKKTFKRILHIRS
Assay: Displacement of [3H]pyrilamine from recombinant human H1 receptor after 60 mins by scintillation counting analysis
QUANTITY: EC50

What value of EC50 has been reported for the following compound? O=C(Nc1ccc(OC(F)F)nc1)NC1CCN(c2ncnc3c2nc(-c2ccccc2Cl)n3-c2ccc(Cl)cc2)CC1
> 10 µM

* * *

For each record, write down the corresponding pKi.
Schema: pKi number; meaning minus log10 of the concentration expressed in molar units.

Identify the measured pKi of CC1(NS(=O)(=O)NC2CCCCC2)CCN(c2ncnc3c2nc(-c2ccccc2Cl)n3-c2ccc(Cl)cc2)CC1 for Cannabinoid receptor 1 (Homo sapiens).
8.05

// map O=C(NCC1CCC(F)(F)CC1)NC1CCN(c2ncnc3c2nc(-c2ccccc2Cl)n3-c2ccc(Cl)cc2)CC1 to recorded pKi (system: Cannabinoid receptor 1 (Homo sapiens))
Sequence (P21554 whole entry): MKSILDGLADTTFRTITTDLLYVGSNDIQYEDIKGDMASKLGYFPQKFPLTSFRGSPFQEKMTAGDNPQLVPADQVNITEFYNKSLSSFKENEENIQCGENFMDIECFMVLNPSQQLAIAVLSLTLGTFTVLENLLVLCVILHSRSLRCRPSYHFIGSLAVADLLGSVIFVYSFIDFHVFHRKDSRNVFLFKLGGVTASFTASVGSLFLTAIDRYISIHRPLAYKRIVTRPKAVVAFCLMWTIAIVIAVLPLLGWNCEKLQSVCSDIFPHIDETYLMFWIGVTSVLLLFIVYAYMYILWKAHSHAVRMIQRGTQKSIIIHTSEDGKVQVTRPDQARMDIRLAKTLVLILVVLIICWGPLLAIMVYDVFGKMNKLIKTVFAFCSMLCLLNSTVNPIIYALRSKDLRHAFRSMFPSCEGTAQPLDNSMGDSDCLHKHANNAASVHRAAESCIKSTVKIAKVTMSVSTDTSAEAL
7.59

// fetch Cannabinoid receptor 1 (Homo sapiens) pKi for CC1(NC(=O)NC2CCN(c3ncnc4c3nc(-c3ccccc3Cl)n4-c3ccc(Cl)cc3)CC2)CCC(F)(F)CC1
8.30

Fill in the recorded pKi for this compound, with Cannabinoid receptor 1 (Homo sapiens) as test system: CC1(NC(=O)Nc2ccccc2F)CCN(c2ncnc3c2nc(-c2ccccc2Cl)n3-c2ccc(Cl)cc2)CC1
8.40

Item CC1(NC(=O)Nc2ccc(OC(F)F)nc2)CCN(c2ncnc3c2nc(-c2ccccc2Cl)n3-c2ccc(Cl)cc2)CC1 with Cannabinoid receptor 1 (Homo sapiens) - pKi?
7.09

Attribution: ChEMBL document CHEMBL4364254
